Target: CDK16/Cyclin Y (Homo sapiens)
Construct: Full-length kinases were obtained as plasmids cloned in frame with a terminal NanoLuc-fusion; CS1810C178 (CCNY); host or cells: HEK293T
Sequence (Q00536 whole entry, the tested form may be a part): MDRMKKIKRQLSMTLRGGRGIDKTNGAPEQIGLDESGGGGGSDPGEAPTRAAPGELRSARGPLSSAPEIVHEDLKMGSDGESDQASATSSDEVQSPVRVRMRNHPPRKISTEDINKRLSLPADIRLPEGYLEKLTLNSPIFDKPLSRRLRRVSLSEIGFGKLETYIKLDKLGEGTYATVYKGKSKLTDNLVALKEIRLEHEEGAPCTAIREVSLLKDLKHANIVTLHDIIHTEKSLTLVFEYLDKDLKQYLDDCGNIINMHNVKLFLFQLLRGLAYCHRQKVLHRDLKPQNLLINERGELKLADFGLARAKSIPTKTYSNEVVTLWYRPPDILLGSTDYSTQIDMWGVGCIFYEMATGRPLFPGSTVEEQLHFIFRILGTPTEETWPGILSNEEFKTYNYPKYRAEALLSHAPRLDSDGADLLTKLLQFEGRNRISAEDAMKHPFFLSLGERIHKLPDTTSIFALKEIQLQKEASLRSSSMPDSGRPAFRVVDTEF
Sequence (Q8ND76 2-341 partner limits assumed): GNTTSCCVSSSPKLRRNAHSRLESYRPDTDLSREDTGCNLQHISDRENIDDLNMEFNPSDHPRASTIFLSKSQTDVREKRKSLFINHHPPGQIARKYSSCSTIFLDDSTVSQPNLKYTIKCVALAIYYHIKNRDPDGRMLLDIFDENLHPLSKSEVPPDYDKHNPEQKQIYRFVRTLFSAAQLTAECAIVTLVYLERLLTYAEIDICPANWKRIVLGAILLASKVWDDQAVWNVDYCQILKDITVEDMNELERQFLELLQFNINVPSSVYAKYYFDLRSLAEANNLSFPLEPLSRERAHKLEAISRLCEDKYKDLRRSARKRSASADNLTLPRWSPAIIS
Experiment: NanoBRET
Assay type: cell-based
Settings: CDK family profiling, Table S5; read-out: NanoBRET EC50 ± SEM CDK16/Cyclin Y

- Compound: "N#CCc1ccc(Nc2nccc(Nc3cc(C4CC4)[nH]n3)n2)cc1 [compound 1, reference compound]"
  Test Target: "CDK16/Cyclin Y (Homo sapiens)"
  Scale Unit: "µM"
  EC50: 0.0146

###

Molecular target: STK4 (Homo sapiens, UniProt Q13043)
Construct: purchased in-house DSF panel (SGC Frankfurt)
Sequence (Q13043 30-281): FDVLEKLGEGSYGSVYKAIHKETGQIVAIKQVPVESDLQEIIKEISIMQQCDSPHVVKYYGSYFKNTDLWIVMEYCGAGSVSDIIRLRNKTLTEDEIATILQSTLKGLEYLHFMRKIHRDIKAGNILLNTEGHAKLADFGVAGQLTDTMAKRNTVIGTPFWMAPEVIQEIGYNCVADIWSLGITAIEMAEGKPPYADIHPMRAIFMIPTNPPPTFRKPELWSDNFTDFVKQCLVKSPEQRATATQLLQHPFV
Test: DSF
Type: binding
Threshold check on ΔTm STK4: strictly below 10 °C is met; on or above 10 °C is not met.

- Molecule: "COC(=O)c1cc(Nc2ccnc(NCCOCCNC(=O)OC(C)(C)C)n2)[nH]n1 [21d]"
  Test Target: "STK4 (Homo sapiens, UniProt Q13043)"
  Assigned Category: "met"
- Molecule: "CC(C)OC(=O)c1cc(Nc2ccnc(NCc3ccc(NC(=O)OC(C)(C)C)cc3)n2)n[nH]1 [42d]"
  Test Target: "STK4 (Homo sapiens, UniProt Q13043)"
  Assigned Category: "met"
- Molecule: "COC(=O)c1cc(Nc2ccnc(NCc3ccc(NC(=O)OC(C)(C)C)cc3)n2)[nH]n1 [21i]"
  Test Target: "STK4 (Homo sapiens, UniProt Q13043)"
  Assigned Category: "met"
- Molecule: "CN[C@@H]1C[C@H]2O[C@@](C)([C@@H]1OC)n1c3ccccc3c3c4c(c5c6ccccc6n2c5c31)C(=O)NC4 [staurosporine, reference compound]"
  Test Target: "STK4 (Homo sapiens, UniProt Q13043)"
  Assigned Category: "not met"
- Molecule: "CC(C)(C)OC(=O)Nc1ccc(CNc2nccc(Nc3cc(C(=O)OC(C)(C)C)[nH]n3)n2)cc1 [43d]"
  Test Target: "STK4 (Homo sapiens, UniProt Q13043)"
  Assigned Category: "met"
- Molecule: "N#CCc1ccc(Nc2nccc(Nc3cc(C4CC4)[nH]n3)n2)cc1 [compound 1, reference compound]"
  Test Target: "STK4 (Homo sapiens, UniProt Q13043)"
  Assigned Category: "met"
